- System tested: trimeric MLL1 complex (MLL1, RbBP5 and WDR5) (Homo sapiens, UniProt Q03164)
- Assay notes: FL-NAH fluorescence polarization saturation binding, trimeric complex
- Assay context: 50 nM FL-NAH, FP after 30 min

# Molecule, Kd / µM
measured = [
    ("Nc1ncnc2c1ncn2[C@@H]1O[C@H](CN(CC[C@H](N)C(=O)O)Cc2cn(CCNC(=O)c3ccc4c(c3)C(=O)OC43c4ccc(O)cc4Oc4cc(O)ccc43)nn2)[C@@H](O)[C@H]1O [FL-NAH]", 7),
]

* * *

- System tested: MLL1 SET domain (Homo sapiens)
- Assay notes: FL-NAH displacement FP assay, isolated SET domain
pIC50: −log10 of the molar value.

# Compound, System tested, pIC50
measured = [
    ("Nc1ncnc2c1ncn2[C@@H]1O[C@H](C[C@@H](N)CC[C@H](N)C(=O)O)[C@@H](O)[C@H]1O", "MLL1 SET domain (Homo sapiens)", 5.05),
    ("C[S+](CC[C@H](N)C(=O)[O-])C[C@H]1O[C@@H](n2cnc3c(N)ncnc32)[C@H](O)[C@@H]1O (some centres unmarked)", "MLL1 SET domain (Homo sapiens)", 4.85),
]

* * *

- System tested: tetrameric MLL1 complex (Homo sapiens, UniProt Q03164)
- Sequence (Q03164 3829-3945): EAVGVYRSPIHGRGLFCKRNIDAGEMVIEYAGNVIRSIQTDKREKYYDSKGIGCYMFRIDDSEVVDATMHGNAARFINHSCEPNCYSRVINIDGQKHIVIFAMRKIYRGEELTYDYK
- Sequence (Q15291 whole entry, further chain): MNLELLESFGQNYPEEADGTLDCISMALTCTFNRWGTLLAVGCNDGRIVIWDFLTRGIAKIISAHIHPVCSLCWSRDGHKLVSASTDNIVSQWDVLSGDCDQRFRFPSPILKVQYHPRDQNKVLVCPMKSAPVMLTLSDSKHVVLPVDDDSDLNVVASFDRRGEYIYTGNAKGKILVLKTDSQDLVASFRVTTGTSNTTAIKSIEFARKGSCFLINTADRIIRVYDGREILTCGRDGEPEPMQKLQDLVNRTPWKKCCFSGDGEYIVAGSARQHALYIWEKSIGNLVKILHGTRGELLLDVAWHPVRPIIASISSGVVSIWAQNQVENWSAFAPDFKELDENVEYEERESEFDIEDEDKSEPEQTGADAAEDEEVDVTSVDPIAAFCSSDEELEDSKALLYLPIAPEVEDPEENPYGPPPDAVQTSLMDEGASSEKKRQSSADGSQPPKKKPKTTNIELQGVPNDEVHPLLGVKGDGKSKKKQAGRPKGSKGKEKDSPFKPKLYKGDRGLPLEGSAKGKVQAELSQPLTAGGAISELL
- Sequence (Q9UBL3 whole entry, further chain): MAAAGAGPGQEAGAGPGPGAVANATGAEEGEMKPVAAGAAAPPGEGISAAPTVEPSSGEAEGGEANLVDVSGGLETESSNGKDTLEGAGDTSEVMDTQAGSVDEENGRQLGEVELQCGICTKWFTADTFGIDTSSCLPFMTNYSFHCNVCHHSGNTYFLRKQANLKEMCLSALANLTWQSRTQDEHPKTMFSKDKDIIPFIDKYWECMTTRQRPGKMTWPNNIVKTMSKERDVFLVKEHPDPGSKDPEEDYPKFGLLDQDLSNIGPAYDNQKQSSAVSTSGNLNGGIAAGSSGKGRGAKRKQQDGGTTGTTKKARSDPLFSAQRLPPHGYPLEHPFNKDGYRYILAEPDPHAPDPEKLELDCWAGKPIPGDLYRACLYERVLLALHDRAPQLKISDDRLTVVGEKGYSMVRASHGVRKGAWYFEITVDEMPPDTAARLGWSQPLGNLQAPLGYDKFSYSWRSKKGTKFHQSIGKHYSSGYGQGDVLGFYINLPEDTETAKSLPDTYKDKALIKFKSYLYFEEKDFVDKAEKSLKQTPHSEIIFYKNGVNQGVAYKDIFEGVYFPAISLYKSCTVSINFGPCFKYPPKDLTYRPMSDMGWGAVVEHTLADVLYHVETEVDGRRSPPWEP
- Assay notes: FL-NAH displacement FP assay, tetrameric complex
- Type: binding
pIC50: −log10 of the molar value.

# Molecule, System tested, pIC50
records = [
    ("Nc1ncnc2c1ncn2[C@@H]1O[C@H](C[C@@H](N)CC[C@H](N)C(=O)O)[C@@H](O)[C@H]1O", "tetrameric MLL1 complex (Homo sapiens, UniProt Q03164)", 5.70),
    ("C[S+](CC[C@H](N)C(=O)[O-])C[C@H]1O[C@@H](n2cnc3c(N)ncnc32)[C@H](O)[C@@H]1O (some centres unmarked)", "tetrameric MLL1 complex (Homo sapiens, UniProt Q03164)", 6.00),
]

* * *

- System tested: MLL1 SET domain (Homo sapiens, UniProt Q03164)
- Sequence (Q03164 3829-3945 limits assumed): as the sequence (Q03164 3829-3945) above
- Assay notes: FL-NAH fluorescence polarization saturation binding, isolated SET domain
- Assay context: SET Only; 50 nM FL-NAH, FP after 30 min
pKd: −log10 of the molar value.
Endpoint label: pKd

# Molecule smiles, Assay result
rows = [
    ("Nc1ncnc2c1ncn2[C@@H]1O[C@H](CN(CC[C@H](N)C(=O)O)Cc2cn(CCNC(=O)c3ccc4c(c3)C(=O)OC43c4ccc(O)cc4Oc4cc(O)ccc43)nn2)[C@@H](O)[C@H]1O", 6.00),
]

* * *

- System tested: pentameric MLL1 complex (Homo sapiens, UniProt Q03164)
- Assay notes: FL-NAH fluorescence polarization saturation binding, pentameric complex
- Assay context: 50 nM FL-NAH, FP after 30 min
pKd: −log10 of the molar value.
Endpoint label: pKd

# Molecule smiles, System tested, Assay result
records = [
    ("Nc1ncnc2c1ncn2[C@@H]1O[C@H](CN(CC[C@H](N)C(=O)O)Cc2cn(CCNC(=O)c3ccc4c(c3)C(=O)OC43c4ccc(O)cc4Oc4cc(O)ccc43)nn2)[C@@H](O)[C@H]1O", "pentameric MLL1 complex (Homo sapiens, UniProt Q03164)", 6.70),
]

* * *

Below is a list of entries, each paired with its recorded IC50 value.
- System tested: pentameric MLL1 complex (Homo sapiens)
- Assay notes: FL-NAH displacement FP assay, pentameric complex

# Compound, IC50 / µM
rows = [
    ("C[S+](CC[C@H](N)C(=O)[O-])C[C@H]1O[C@@H](n2cnc3c(N)ncnc32)[C@H](O)[C@@H]1O (some centres unmarked) [SAM, S-adenosylmethionine]", 1),
    ("Nc1ncnc2c1ncn2[C@@H]1O[C@H](C[C@@H](N)CC[C@H](N)C(=O)O)[C@@H](O)[C@H]1O [Sinefungin, sinefungin]", 0.5),
]
